# subject.of.test: human μ opiate receptor (Homo sapiens)
# Construct: purchased PerkinElmer Life Sciences, Zaventem, Belgium RB-HOM; host or cells: CHO-K1 cells (membrane preparation)
# Sequence (P35372 whole entry): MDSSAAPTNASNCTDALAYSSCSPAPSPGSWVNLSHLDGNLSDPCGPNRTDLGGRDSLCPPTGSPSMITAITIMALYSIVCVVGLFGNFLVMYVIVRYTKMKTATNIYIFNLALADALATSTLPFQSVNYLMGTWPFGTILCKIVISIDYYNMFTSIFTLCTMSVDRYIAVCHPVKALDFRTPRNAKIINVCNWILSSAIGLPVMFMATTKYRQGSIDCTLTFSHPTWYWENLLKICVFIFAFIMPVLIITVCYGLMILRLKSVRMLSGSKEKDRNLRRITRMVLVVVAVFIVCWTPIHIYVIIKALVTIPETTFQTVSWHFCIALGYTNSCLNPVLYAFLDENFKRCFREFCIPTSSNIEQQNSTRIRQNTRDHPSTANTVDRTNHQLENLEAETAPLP
# experiment.notes: Affinity for the human μ opiate receptor ([3H]-naloxone displacement, CHO-K1 receptor membrane preparation, SPA)
# Format: binding
# protocol.conditions: test concentration of 1 μM
parameter: μ (binding on the μ opioid receptor, % inhibition) (%)
Field format: number, assumed %, no unit text.

May I ask what μ (binding on the μ opioid receptor, % inhibition) has been recorded for Cc1ccc(S(=O)(=O)N2CCC(OCC(=O)NCC3CCC(C(CCc4ccccc4)N(C)C)CC3)C2)cc1 (stereo not shown) ? 25

I have this compound here, COc1ccc(S(=O)(=O)N2CCCC2COCC(=O)NCCC2CCC(C(c3ccc(Cl)cc3)N(C)C)CC2)cc1 (stereo not shown) , and I need its recorded μ (binding on the μ opioid receptor, % inhibition). 63

Which μ (binding on the μ opioid receptor, % inhibition) is reported for this compound? CN(C)C(c1ccc(F)cc1)C1CCC(CCNC(=O)COCCN(Cc2ccccc2)S(=O)(=O)c2ccccc2)CC1 (stereo not shown) 35

I am curious: what μ (binding on the μ opioid receptor, % inhibition) value has been reported for COc1cc(C)c(S(=O)(=O)N2CCCC(OCC(=O)NCC3CCC(C(c4ccc(F)cc4)N(C)C)CC3)C2)c(C)c1C (stereo not shown) ? 51

Given COc1cc(C)c(S(=O)(=O)N(CCOCC(=O)NCC2CCC(C(CCc3ccccc3)N(C)C)CC2)Cc2ccccc2)c(C)c1 (stereo not shown) , state its recorded μ (binding on the μ opioid receptor, % inhibition). 33

For the compound shown here, COc1ccc(S(=O)(=O)N2CCCCC2COCC(=O)NC2CCC(C(c3ccc(F)cc3)N(C)C)CC2)c(OC)c1 (stereo not shown) , give the reported μ (binding on the μ opioid receptor, % inhibition). 33

Could you tell me which μ (binding on the μ opioid receptor, % inhibition) is on file for COc1cc(C)c(S(=O)(=O)N2CCC(OCC(=O)NCCC3CCC(C(c4ccc(F)cc4)N(C)C)CC3)CC2)c(C)c1C (stereo not shown) ? 38
